Origin of measurements: BindingDB's records for doi:10.1016/j.bmc.2014.03.018

# assay-remarks: Antagonist activity at androgen receptor in human LNCAP cells assessed as inhibition of androgen-stimulated cell growth measured every 3 days
For each of the compounds below, state its pIC50.
One number for each entry, as −log10 of the molar value.

                              smiles_record  measured_metric  recorded_result
0  CC(C)(O)c1cn(-c2ccc([N+](=O)[O-])c(C(F)(F)F)c2)nn1            pIC50             4.35

// below: pIC50 requested for another compound
Task item: What value of measured pIC50 is listed for `CC(C)(O)c1cn(-c2ccc(Cl)c(C(F)(F)F)c2)nn1` ?
Reply: 4.31
